Provide the reported %Inh of each item.
Tested on: TRPM6
Conditions: concentration: 1 μM, replicates: in singlicate; n = 1;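 further: KINOMEscan kinase panel screen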
Numbers only, in %.

Recorded results for 4 molecules are shown here.
Cc1ccc(NC(=O)Nc2cccc(Cl)c2)cc1-c1ccc(C(=O)Nc2ccncc2)cc1	0
Cc1cccc(-c2nc(Nc3cccc(C(N)=O)c3)c3ccccc3n2)n1	0
Cc1cc(N2Cc3ccccc3C2)nc(Nc2ccc(S(=O)(=O)N3CCOCC3)cc2)n1.Cl	9
Clc1cc(Cl)cc(Nc2ccnc(Nc3cc(Cl)cc(Cl)c3)n2)c1	0

Alright, here's another molecule for you.
Notebook: CCCc1ccc(S(=O)(=O)NC2CCN(c3ccnc(Nc4ccc(F)cc4)n3)C2)cc1 (centres unmarked) , %Inh read as 0

----------
Test system: PRKG1
Conditions: concentration: 1 μM, replicates: in singlicate; n = 1
recordedEndpoint: %Inh (%)
Give bare numbers, in %.

Recorded results for 2 compounds are shown here.
O=C(Nc1n[nH]c2nc(-c3nccs3)c(Br)cc12)C1CC1	0
COc1cccc(-c2cc(-c3c[nH]nc3-c3ccccn3)ccn2)c1	6

Alright, here's another compound for you.
Notebook: Cc1cc(-c2ccc3c(c2)CC[C@@H](N[C@@H](C)c2ccccc2)C3)cnc1N.Cl , %Inh read as 9

----------
Test system: MEK6
Construct: gene MAP2K6
Conditions: concentration: 1 μM, replicates: in singlicate; n = 1
recordedEndpoint: %Inh (%)
Numbers only, in %.

CC(C)(C)c1ccc(C(=O)Nc2cn3cc(Cl)ccc3n2)cc1	0

// for each compound in input: emit %Inh
1. Cc1cccc(-c2nc(Nc3ccncc3)c3ccccc3n2)n1
2. Cc1ccc(-c2cc(-c3c[nH]nc3-c3ccccn3)ccn2)cc1

0
19

----------
Test system: CSNK2A2
Settings: concentration: 1 μM, replicates: in singlicate; n = 1
recordedEndpoint: %Inh (%)
Numbers only, in %.

Cc1csc(-c2nc(Nc3ccncc3)c3ccccc3n2)n1	26
CC(C)(C)c1ccc(C(=O)Nc2cn3cc(Cl)ccc3n2)cc1	0
Cl.c1ccc(-c2n[nH]cc2-c2ccnc(-c3ccc(CN4CCOCC4)cc3)c2)nc1	0

Response field %Inh (CSNK2A2) for item Cc1cc(NCC(c2ccccc2)c2ccccc2)nc(NCc2ccc(C(F)(F)F)cc2)n1 : 0

----------
System: SIK2
Details: concentration: 1 μM, replicates: in singlicate; n = 1
recordedEndpoint: %Inh (%)
One number for each entry, in %.

// for each molecule in input: emit %Inh
1. Cl.O=C(Nc1cccc(-c2nn3ncccc3c2-c2ccnc(Nc3cccnc3)n2)c1)c1c(F)cccc1F [GSK312879]
2. O=C(Nc1n[nH]c2cc(-c3cccc(F)c3F)ccc12)C1CC1 [SB-733894]
3. Cc1cc(NCC(c2ccccc2)c2ccccc2)nc(NCc2ccc(C(F)(F)F)cc2)n1 [GW497681]
4. Cc1cccc(-c2nc(Nc3ccncc3)c3ccccc3n2)n1 [GW855857]
5. Fc1cc(Cl)ccc1Nc1ccnc2cc(I)ccc12 [GW551191]

0
0
0
0
49

----------
Tested on: EPHB4
Settings: concentration: 1 μM, replicates: in singlicate; n = 1
Label scheme, based on %Inh: bucket 1: < 1%; bucket 2: ≥ 1% and < 20%; bucket 3: ≥ 20%

Example entries and their recorded answers appear below.
Cc1ccc(NC(=O)Nc2cc(C(C)(C)C)nn2-c2ccccc2)cc1 [GSK1014915]	bucket 2
Cl.Oc1ccc(-c2nc(-c3ccccc3)[nH]c2-c2ccncc2)cc1 [SB-428218]	bucket 3
Cc1cc(N2Cc3ccccc3C2)nc(Nc2ccc(S(=O)(=O)N3CCOCC3)cc2)n1.Cl [GSK1669917]	bucket 2
Cc1cccc(-c2cc(Nc3ccncc3)c3ccccc3n2)n1 [GSK223675]	bucket 1
Cc1cccc(-c2nc(-c3ccc(S(C)(=O)=O)cc3)sc2-c2ccnc(NCCc3ccccc3)c2)c1	bucket 1

Please let me know in which category the item Cc1ccc(NC(=O)Nc2cccc(Cl)c2)cc1-c1ccc(C(=O)Nc2ccncc2)cc1 [GSK1398468] belongs.
bucket 2

Please let me know in which category the item Cn1ccc2ncnc(Oc3cccc(C(=O)Nc4ccccc4)c3)c21 belongs.
bucket 2

Please let me know in which category the item O=c1cc(N2CCOCC2)nc2n(Cc3cccc(Cl)c3Cl)ccn12 [GSK2286295] belongs.
bucket 2

Please let me know in which category the item Clc1cc(Cl)cc(Nc2ccnc(Nc3cc(Cl)cc(Cl)c3)n2)c1 [GSK175726] belongs.
bucket 3

Please let me know in which category the item Cc1cccc(-c2nc(Nc3ccc4[nH]ncc4c3)c3ccccc3n2)n1 [GW857175] belongs.
bucket 1

Please let me know in which category the item COc1ccc(CNC(=O)NC2CCN(c3ccnc(Nc4cc(OC)c(OC)c(OC)c4)n3)C2)cc1 (centres unmarked) [GSK1379748] belongs.
bucket 1

Please let me know in which category the item Cc1nnc(-c2ccc3occ(-c4ccc(S(C)=O)cc4)c3c2)[nH]1 (centres unmarked) belongs.
bucket 2

----------
System: RPS6KA5(Kin.Dom.1-N-terminal)
Conditions: concentration: 1 μM, replicates: in singlicate; n = 1
Provide the reported %Inh of each item.
Give bare numbers, in %.

Recorded results for 4 compounds are shown here.
Fc1cccc(COc2nnc(-c3ccc4c(c3)CCO4)o2)c1	0
Cc1cccc(-c2nc(C)cc(Nc3ccncc3)n2)n1	7
CN(C)CCN(C)C(=O)c1cc(-c2ccncc2)c(-c2ccc(Cl)c(O)c2)o1.Cl.Cl	10
Cc1cccc(-c2nc(Nc3cccc(C(N)=O)c3)c3ccccc3n2)n1	0

Alright, here's another compound for you.
Response field %Inh (RPS6KA5(Kin.Dom.1-N-terminal)) for item Cc1c(O)cccc1Nc1ccnc2ccc(C(F)(F)F)cc12.Cl : 32

----------
Test system: RPS6KA5(Kin.Dom.1-N-terminal)
Conditions: concentration: 1 μM, replicates: in singlicate; n = 1
recordedEndpoint: %Inh (%)
Give bare numbers, in %.

Recorded results for 3 molecules are shown here.
CCn1c(-c2cccnc2O)nc2cnccc21 [SB-736715]	0
Cc1cc(N2Cc3ccccc3C2)nc(Nc2ccc(S(=O)(=O)N3CCOCC3)cc2)n1.Cl [GSK1669917]	0
Cc1cc(NCC(c2ccccc2)c2ccccc2)nc(NCc2ccc(C(F)(F)F)cc2)n1 [GW497681]	0

// for each molecule in input: emit %Inh
1. COc1ccc(Nc2nccc(NCCNC(=O)Nc3ccccc3F)n2)cc1 [GSK1379901]
2. COc1ccccc1-c1ccc2c(NC(=O)C3CC3)n[nH]c2n1 [SB-711239]
3. Fc1cc(Cl)ccc1Nc1ccnc2cc(-c3ccc(CN4CCCCC4)o3)ccc12 [GW560116]
4. O=C(Nc1n[nH]c2nc(-c3nccs3)c(Br)cc12)C1CCCC1 [SB-742609]
5. COc1cc(Nc2nccc(N3CCC(NC(=O)Nc4cc(C)ccc4C)C3)n2)cc(OC)c1OC (stereo not drawn) [GSK1379762]
6. COc1ccccc1CNC(=O)c1cc(C(=O)c2ccccc2C)c[nH]1 [GSK364507]

1: 14; 2: 13; 3: 0; 4: 0; 5: 22; 6: 5

----------
Test system: LTK
Settings: concentration: 1 μM, replicates: in singlicate; n = 1
Provide the reported %Inh of each item.
Please answer using a numeric value trailed by its unit.

CCn1c(-c2cccnc2O)nc2cnccc21	0%
Nc1ncnc2[nH]c(-c3ccccc3)nc12	91.4%
CC(=O)Nc1nc2cnc(Nc3cc(NC(=O)c4cccc(CCC#N)c4)ccc3C)nc2s1	0%
Cc1cccc(-c2nc(-c3ccc(S(C)(=O)=O)cc3)sc2-c2ccnc(NCCc3ccccc3)c2)c1	0%

// for each compound in input: emit %Inh
1. Cn1ccc2ncnc(Oc3cccc(C(=O)Nc4ccccc4)c3)c21
2. Cn1ccc2ncnc(Oc3ccc(Nc4nc5ccccc5[nH]4)cc3)c21
3. Cl.O=C(Nc1cccc(-c2nn3ncccc3c2-c2ccnc(Nc3cccnc3)n2)c1)c1c(F)cccc1F
4. COc1cc(Nc2nccc(N3CCC(NC(=O)Nc4cc(C)ccc4C)C3)n2)cc(OC)c1OC (stereo not drawn)
5. COc1cc2nccc(Nc3ccc(NC(=O)c4ccc(C)cc4)c(O)c3)c2cc1OC.Cl

1. 2%
2. 0%
3. 3%
4. 67%
5. 0%

----------
Test system: SNARK
Construct: gene NUAK2
Conditions: concentration: 1 μM, replicates: in singlicate; n = 1
Provide the reported %Inh of each item.
One number for each entry, in %.

Recorded results for 4 compounds are shown here.
Cc1cccc(-c2nc(C)cc(Nc3ccncc3)n2)n1	4
Cc1cccc(-c2nc(Nc3ccc4[nH]ncc4c3)c3ccccc3n2)n1	15
O=C(Nc1n[nH]c2nc(-c3nccs3)c(Br)cc12)C1CC1	0
Cn1cncc1-c1ccc2ncnc(Nc3ccc(OCc4ccccc4)cc3)c2c1	0

// for each compound in input: emit %Inh
1. O=c1cc(N2CCOCC2)nc2n(Cc3cccc(Cl)c3Cl)ccn12
2. Cn1ccc2ncnc(Oc3ccc(Nc4nc5ccccc5[nH]4)cc3)c21

1. 0
2. 0

// for each compound in input: emit %Inh
1. COc1cc(Nc2nccc(N3CCC(NC(=O)Nc4cc(C)ccc4C)C3)n2)cc(OC)c1OC (stereo not drawn)
2. COC(=O)c1c(-c2ccccc2)c2cc(OC)ccc2c(=O)n1Cc1ccccc1
3. Cl.NC(=O)c1cccc(Nc2nccc(Nc3ccc(Oc4cccc(Cl)c4)c(Cl)c3)n2)c1

1: 23; 2: 12; 3: 0

// for each compound in input: emit %Inh
1. COc1cc2ncnc(Nc3ccc4nc(-c5ccccc5)[nH]c4c3)c2cc1OC.Cl
2. Cc1ccc(C(=O)Nc2ccc(Nc3ccnc4cc(-c5ccccn5)ccc34)cc2O)cc1.Cl
3. CS(=O)(=O)c1ccc(-c2nc3n(c2-c2ccncc2)CCC3)cc1
4. CC(C)(C)c1ccc(C(=O)Nc2cn3cc(Cl)ccc3n2)cc1
5. O=C(O)COc1ncnc2cc(-c3ccc4[nH]ncc4c3)sc12
6. Cc1ccc(NC(=O)Nc2cccc(Cl)c2)cc1-c1ccc(C(=O)Nc2ccncc2)cc1
7. CC1=C(C(=O)Nc2cc3cn[nH]c3cc2F)C(c2ccc(C(F)(F)F)cc2)CC(=O)N1 (stereo not drawn)

1: 0; 2: 0; 3: 0; 4: 0; 5: 13; 6: 0; 7: 80

// for each compound in input: emit %Inh
1. COc1ccccc1-c1ccc2c(NC(=O)C3CC3)n[nH]c2n1
2. CCCc1ccc(S(=O)(=O)NC2CCN(c3ccnc(Nc4ccc(F)cc4)n3)C2)cc1 (stereo not drawn)

8
0
